Source: paper PMC10119930

Overview of recorded Kb for various compounds
- experimental target: 5-HT6 receptor (Homo sapiens)
- Sequence (P50406 whole entry): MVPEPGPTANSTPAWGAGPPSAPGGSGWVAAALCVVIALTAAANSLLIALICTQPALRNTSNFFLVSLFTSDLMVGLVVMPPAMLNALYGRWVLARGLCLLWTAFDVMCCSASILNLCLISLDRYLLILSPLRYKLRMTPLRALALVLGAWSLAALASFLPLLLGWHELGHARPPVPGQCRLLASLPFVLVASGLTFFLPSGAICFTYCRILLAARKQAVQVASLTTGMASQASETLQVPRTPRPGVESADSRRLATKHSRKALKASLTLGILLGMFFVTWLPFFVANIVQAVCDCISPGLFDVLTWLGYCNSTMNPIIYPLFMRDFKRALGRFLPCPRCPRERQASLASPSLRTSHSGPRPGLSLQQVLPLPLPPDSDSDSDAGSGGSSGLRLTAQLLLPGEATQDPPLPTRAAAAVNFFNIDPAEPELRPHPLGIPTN
- method description: Functional assay for 5-HT6 receptor, antagonist mode (aequorin, CHO-K1 cells)
- Type: cell-based
- Set-up: expressed in transfected cells; host or cells: CHO-K1 (co-expressing mitochondrially targeted aequorin and G protein α16)
- condition summary: ±S.E.M., read-out: 5-HT6 R KB

compound | endpoint unit | Kb
Cl.Cl.NCCCC(=O)OCCN1CCN(c2cccc3c2OCC(=O)N3Cc2ccccc2)CC1 [Compound 19] | nM | 7
NCCCC(=O)OCCN1CCN(c2cccc3c2[nH]c(=O)n3Cc2ccccc2)CC1 [Compound 17] | nM | 193
Cl.Cl.NCCCC(=O)OCCN1CCN(c2cccc3c2oc(=O)n3Cc2ccccc2)CC1 [Compound 18] | nM | 245
Cc1c(OCc2ccccc2)cccc1N1CCN(CCOC(=O)CCCN)CC1.Cl.Cl [Compound 16] | nM | 11.9
NCCCC(=O)OCCN1CCN(c2cccc3c2OCCN3Cc2ccccc2)CC1 [Compound 20] | nM | 1670

###

- method description: Hepatotoxicity assay, HepG2 cell viability (PrestoBlue, ToxiLight)
- Format: cell-based, human
- condition summary: human, HepG2 cells, HepG2, 10 µM, 24 h; read-out: viability of cells, MEAN (percentage of control, live cells)

compound | viability at 24 h, 10 µM / %
Cc1c(OCc2ccccc2)cccc1N1CCN(CCOC(=O)CCCN)CC1.Cl.Cl [Compound 16] | 104

###

- experimental target: muscimol site of the GABA-A receptor
- method description: Radioligand binding assay for GABA-A receptor ([3H]muscimol displacement, rat brain homogenate)
- condition summary: competitive replacement of [3H]muscimol; ±S.E.M.
- Description: The study was acquired according to the earlier protocols.[39] The rats’ brains were homogenized and prepared accurately according to the previous protocol.[39] On the day of the study, brain homogenates were thawed at room temperature and “diluted” in 20 volumes of ice-cold 50 mM Tris-HCl buffer (pH 7.4) and centrifuged (20.000g, 30 min, 0–4 °C). The assay was performed directly on 96-well microplates, which contained 50 mM Tris-HCl buffer (pH 7.4) in a total volume of 300 μL. […]
Field: label. Allowed values: YES (Ki < 200 nM) or NO (Ki >= 200 nM).

mol | class
NCCCC(=O)OCCN1CCN(c2cccc3c2[nH]c(=O)n3Cc2ccccc2)CC1 | NO
NCCCC(=O)OCCN1CCN(c2cccc3c2OCCN3Cc2ccccc2)CC1 | YES
Cl.Cl.NCCCC(=O)OCCN1CCN(c2cccc3c2OCC(=O)N3Cc2ccccc2)CC1 | NO
Cl.Cl.NCCCC(=O)OCCN1CCN(c2cccc3c2oc(=O)n3Cc2ccccc2)CC1 | NO
Cc1c(OCc2ccccc2)cccc1N1CCN(CCOC(=O)CCCN)CC1.Cl.Cl | YES

###

- method description: Hepatotoxicity assay, HepG2 cell viability (PrestoBlue, ToxiLight)
- Type: cell-based, human
- condition summary: human, HepG2 cells, HepG2, 50 µM, 24 h; read-out: viability of cells, MEAN (percentage of control, live cells)

mol | endpoint unit | viability at 24 h, 50 µM
Cc1c(OCc2ccccc2)cccc1N1CCN(CCOC(=O)CCCN)CC1.Cl.Cl | % | 102

###

- experimental target: UniProtKB P50406
- method description: Radioligand binding assay for 5-HT6 receptor ([3H]-LSD displacement)
- Design: expressed in transfected cells; host or cells: HEK-293 (cryopreserved membranes)
- condition summary: 5-HT6R Ki, competitive replacement of [3H]-LSD; ±S.E.M.

mol | Ki, nM
O=c1oc2c(N3CCNCC3)cccc2n1Cc1ccccc1 | 4
O=C1COc2c(N3CCNCC3)cccc2N1Cc1ccccc1 | 1
c1ccc(CN2CCOc3c(N4CCNCC4)cccc32)cc1 | 60
O=c1[nH]c2c(N3CCNCC3)cccc2n1Cc1ccccc1 | 0.2

###

- method description: Thermodynamic solubility in PBS
- Type: physicochemical
- condition summary: Dulbecco’s phosphate buffered saline, 22 °C, aqueous buffer, thermodynamic from solid, PBS pH 7.4, rt

mol | solubility at 24 h
Cc1c(OCc2ccccc2)cccc1N1CCN(CCOC(=O)CCCN)CC1.Cl.Cl | > 2000 µg/mL

###

- method description: Hepatotoxicity assay, HepG2 cell viability (PrestoBlue, ToxiLight)
- Assay type: cell-based, human
- condition summary: human, HepG2 cells, HepG2, 100 µM, 24 h; read-out: viability of cells, MEAN (percentage of control, live cells)

compound | viability at 24 h, 100 µM [%]
Cc1c(OCc2ccccc2)cccc1N1CCN(CCOC(=O)CCCN)CC1.Cl.Cl [Compound 16] | 14

###

- method description: Hepatotoxicity assay, HepG2 cell viability (PrestoBlue, ToxiLight)
- Assay type: cell-based, human
- condition summary: human, HepG2 cells, HepG2, 1 µM, 24 h; read-out: viability of cells, MEAN (percentage of control, live cells)

compound | endpoint unit | viability at 24 h, 1 µM
Cc1c(OCc2ccccc2)cccc1N1CCN(CCOC(=O)CCCN)CC1.Cl.Cl [Compound 16] | % | 102
